Source of measurements: ChEMBL document CHEMBL1157539

Test system: Plasmodium falciparum
experiment description: GSK_TCMDC: Inhibition of Plasmodium falciparum 3D7 in whole erythrocytes, using parasite LDH activity as an index of growth.
Type: functional, organism-based
recorded conditions: Plasmodium falciparum, 3D7
value kind: XC50 (µM)

{"columns": ["item smiles", "value kind", "value measured"],
 "data": [
  ["CCCCCCOc1ccc(N2C(N)=NC(N)=NC2(C)C)cc1", "XC50", 0.344],
  ["CC(=O)Nc1ncc(C(=O)Nc2cccc(-c3ccc(-c4nc5cc(C(F)(F)F)ccc5[nH]4)s3)c2)s1", "XC50", 0.398],
  ["NC(=O)c1ccccc1Nc1nc(Nc2ccc(N3CCOCC3)cc2)ncc1[N+](=O)[O-]", "XC50", 0.881],
  ["COc1ccc(-c2nc3c(NCc4ccccc4)nccc3[nH]2)c(OC)c1", "XC50", 0.778],
  ["Cc1nnsc1C(=O)Nc1cccc(-c2csc(-c3nc4ccccc4[nH]3)c2)c1", "XC50", 0.351]
]}

###

System: Plasmodium falciparum
experiment description: GSK_TCMDC: Inhibition of Plasmodium falciparum 3D7 in whole erythrocytes, using parasite LDH activity as an index of growth.
Assay type: functional, organism-based
recorded conditions: Plasmodium falciparum, 3D7
Classes (XC50): bin A: < 0.3 µM; bin B: ≥ 0.3 µM and < 0.8 µM; bin C: ≥ 0.8 µM

{"columns": ["molecule", "study target", "class label"],
 "data": [
  ["CCc1cc(NC2CCN(C)CC2)nc(Nc2ccc(C)cc2)n1", "Plasmodium falciparum", "bin B"],
  ["Cc1cccc2nc(-c3cccc(-c4ccc(NC(=O)c5cnccc5C(F)(F)F)cc4)c3)[nH]c12", "Plasmodium falciparum", "bin B"],
  ["COc1ccc(-c2cc(NCc3ccc(-n4ccnc4)cc3)nc(Nc3ccccc3)n2)cc1", "Plasmodium falciparum", "bin C"],
  ["COc1cccc(CNC(=O)c2ccnc(-c3ccc(CNCCOc4ccccc4)cc3)c2)c1", "Plasmodium falciparum", "bin C"],
  ["CCCN1CCN(CCNC(=O)c2cccc(Nc3nccc(Nc4ccc(Oc5ccccc5)cc4)n3)c2)CC1", "Plasmodium falciparum", "bin A"],
  ["Cc1cc(N(C)C2CCN(C)CC2)nc(Nc2ccc(Cl)cc2)n1", "Plasmodium falciparum", "bin A"],
  ["CCc1ccccc1OCCCON1C(=N)N=C(N)NC1(C)C", "Plasmodium falciparum", "bin A"],
  ["N#Cc1cccc(C(=O)N2CCOC(CCN3CCC(c4ccccc4)CC3)(c3ccc(Cl)c(Cl)c3)C2)c1 (centres undefined)", "Plasmodium falciparum", "bin C"],
  ["CC(=O)C1=NN(c2ccc(Cl)cc2)C(c2cccs2)N1c1ccccc1 (centres undefined)", "Plasmodium falciparum", "bin B"],
  ["CCOC(=O)NC1=NC(C)(C)N(OCc2ccc(Cl)c(Cl)c2)C(NC(=O)OCC)=N1", "Plasmodium falciparum", "bin A"],
  ["CC(=O)Nc1ccc(C(=O)Nc2cccc(-c3ccc(-c4nc5cc(F)ccc5[nH]4)cc3)c2)cn1", "Plasmodium falciparum", "bin A"],
  ["O=C(NCc1cccc(C(F)(F)F)c1)c1ccc(CNC(=O)c2ccc(O)c(-c3ccc(Cl)c(Cl)c3)c2)cc1", "Plasmodium falciparum", "bin C"],
  ["CCCNC(=O)Nc1cc2cc(-c3cccc(CN4CCCCC4)c3)ccc2n2c(C)nnc12", "Plasmodium falciparum", "bin C"],
  ["CN(C)CC(O)C(c1ccccc1)c1cccc(Br)c1 (centres undefined)", "Plasmodium falciparum", "bin A"],
  ["CC1CCN(c2nc(C(=O)NCCc3ccc(Cl)c(Cl)c3)c(C(C)C)s2)CC1", "Plasmodium falciparum", "bin C"],
  ["CCNCCCC(C)Nc1ccnc2cc(Cl)ccc12 (centres undefined)", "Plasmodium falciparum", "bin A"],
  ["COc1ccc(-c2ccc(NC(=O)c3ccc(C#N)cc3)cc2)cc1CN1CCCN(C)CC1", "Plasmodium falciparum", "bin A"],
  ["Cc1ccc(C(=O)Nc2ccnc(N(C)C3CCN(Cc4cccc(O)c4)CC3)c2)cn1", "Plasmodium falciparum", "bin C"]
]}

###

Test system: Plasmodium falciparum
experiment description: GSK_TCMDC: Inhibition of Plasmodium falciparum 3D7 in whole erythrocytes, using parasite LDH activity as an index of growth.
Format: functional, organism-based
recorded conditions: Plasmodium falciparum, 3D7
// assign Fulfilled if XC50 falls strictly below 700 nM, else Not fulfilled (ties count as Not fulfilled)

{"columns": ["compound", "class label"],
 "data": [
  ["COc1ccccc1NC(=O)Nc1cccc(-c2cccc(-c3nc4cccc(C)c4[nH]3)c2)c1", "Fulfilled"],
  ["CN(C)c1ccc(-c2cscc2C(=O)NC2CCCN(Cc3cccnc3)C2)cc1 (centres undefined)", "Not fulfilled"],
  ["Cc1cccc2nc(-c3ccc(-c4cccc(CN5CCCC(N)C5)c4)s3)[nH]c12 (centres undefined)", "Fulfilled"],
  ["Cc1cc(Nc2ccc(O)cc2)nc2cc(O)ccc12", "Not fulfilled"],
  ["O=C(N[C@@H](CC1CCCCC1)C(=O)NC1CCCc2ccccc21)c1ccc(O)c(-c2cccc(C(F)(F)F)c2)c1 (some centres undefined)", "Fulfilled"],
  ["O=c1c(Br)c(C(F)(F)F)[nH]c2ccc(Oc3ccccc3)cc12", "Not fulfilled"],
  ["Cc1ccc(O)cc1Nc1ccnc2cc(-c3csc(CN4CCN(C)CC4)n3)ccc12", "Fulfilled"],
  ["CC(=O)c1ccc(N2CCN(CCC3(c4ccc(Cl)c(Cl)c4)COCN(C(=O)c4ccccc4)C3)CC2)cc1 (centres undefined)", "Not fulfilled"],
  ["C[C@@H](CNc1ccnc(Nc2ccc3[nH]c(=O)[nH]c3c2)n1)c1ccccc1", "Not fulfilled"],
  ["O=C(O)CCCN1CCCC(=C(c2ccccc2)c2ccccc2)C1", "Not fulfilled"],
  ["COc1ccccc1CCCON1C(=N)N=C(N)NC1(C)C", "Fulfilled"],
  ["Cc1cc(OCCCN2CCC(NS(=O)(=O)c3cccc(Br)c3)CC2)c2ccccc2n1", "Not fulfilled"],
  ["O=C(c1ccc2ccccc2n1)N1CCCc2cc(Br)ccc21", "Not fulfilled"],
  ["CN(Cc1cccc(C#N)c1)C1CCN(c2cc(NC(=O)c3cccc(F)c3)ccn2)CC1", "Not fulfilled"],
  ["CCCCc1ccc(-c2ccc(-c3c(C)[nH]c(C)c(Br)c3=O)cn2)cc1", "Fulfilled"],
  ["CCCCCN1CCCC1CNS(=O)(=O)c1cccc(C(=O)Nc2cccc(C#N)c2)c1 (centres undefined)", "Not fulfilled"],
  ["CCCc1cc(C(=O)N[C@@H](Cc2ccccc2)[C@H](O)CNC2CCOCC2)c(F)c(N2CCCCS2(=O)=O)c1", "Fulfilled"],
  ["CCOc1cc(C)ccc1C1CCN(CCCCNC(=O)c2ccc(NC(=O)c3cc(Cl)cc(Cl)c3)cc2)CC1", "Fulfilled"],
  ["CCN(CC)CCNC(=O)c1ccc(NC(=O)c2cc3c(C)nn(-c4ccc(Cl)cc4)c3s2)cc1", "Fulfilled"],
  ["CCOC(=O)c1ccc(NC(=O)Nc2cccc(-c3cccc(-c4nc5ccccc5[nH]4)c3)c2)cc1", "Fulfilled"],
  ["COc1cc2nc(N3CC(C)N(C(=O)Cc4ccc(-c5ccccc5)cc4)C(C)C3)nc(N)c2cc1OC (centres undefined)", "Not fulfilled"]
]}

###

Tested on: Plasmodium falciparum
experiment description: GSK_TCMDC: Inhibition of Plasmodium falciparum 3D7 in whole erythrocytes, using parasite LDH activity as an index of growth.
Type: functional, organism-based
recorded conditions: Plasmodium falciparum, 3D7
Where a name gives a salt, the structure may show the parent alone.
value kind: XC50

{"columns": ["compound", "value measured"],
 "data": [
  ["O=c1cc(NCCCNCc2ccc(Cl)c(Cl)c2)[nH]c2ccc(Oc3ccccc3)cc12", "850 nM"],
  ["CN1CC[C@@H](Oc2cc(Nc3nc(-c4ccc(C#N)cc4)cs3)ccc2Cl)C1", "821 nM"],
  ["CC(=O)Nc1ccc(CN2CCN(C(c3ccc(F)cc3)c3ccc(F)cc3)CC2)cc1", "831 nM"],
  ["CN(C)CCNC(=O)N1CCCN(c2ncnc3cc(-c4ccc(Cl)cc4)sc23)CC1", "1020 nM"],
  ["COc1ccc(Cl)cc1-c1nc(C(=O)NCCN2CCCCC2)c(C)s1", "938 nM"],
  ["O=C(Nc1ccc(F)cc1)N1CCCN(c2ccnc3cc(Cl)ccc23)CC1", "785 nM"],
  ["COc1ccc(Cn2c(SCc3ccc(C)cc3)nc3cc(OC)c(OC)cc3c2=N)cc1Cl", "977 nM"],
  ["Fc1ccc2c(NN=CC=Cc3ccccc3)ccnc2c1", "779 nM"],
  ["Cc1cccc2nc(-c3ccc(-c4ccc(CN5CCCC(O)C5)cc4)s3)[nH]c12 (stereo unspecified)", "830 nM"],
  ["Cc1cc(NCCc2ccccc2)nc(NC(=N)Nc2ccc(Cl)cc2)n1", "232 nM"],
  ["COc1ccc(-c2nc(NC(=O)Cc3cccc(OC)c3)sc2C)cc1", "237 nM"],
  ["Clc1cc(Nc2ncnc3cc(C#C[C@H]4CCCN4)sc23)cc2nc(Cc3ccccc3)[nH]c12", "852 nM"],
  ["CCCCNc1nc(NCCCC)c2c(C)c(Cc3ccccc3)c(NCCCC)nc2n1", "889 nM"],
  ["CC(Cc1ccc(OCCCCOc2ccccc2)cc1)NCCCc1nc2ccccc2[nH]1 (stereo unspecified)", "981 nM"],
  ["Fc1ccc2[nH]c(-c3cccc(-c4cccc(CNCc5ccccc5)c4)c3)nc2c1", "283 nM"],
  ["O=C(Nc1ccc(Cl)cc1)c1cccc(S(=O)(=O)NC2CCN(CC3CCCCC3)CC2)c1", "722 nM"],
  ["O=S(=O)(NCCN1CCCC1)c1ccc(-c2ccc(CNCc3ccccc3)cc2)cc1", "775 nM"],
  ["c1ccc(CC2=NCCN2)cc1 [TOLAZOLINE HYDROCHLORIDE]", "188 nM"],
  ["Cc1nc(SCC(=O)N2CCCC2=O)c2c(C)c(C)sc2n1", "170 nM"],
  ["NS(=O)(=O)c1ccc(CNc2ccc3ncc(-c4ccc(Cl)cc4)n3n2)cc1", "284 nM"],
  ["Cc1cccc2nc(-c3ccc(-c4ccc(CNCCCN5CCCC5=O)cc4)cc3)[nH]c12", "632 nM"],
  ["CC(=O)N/N=C/[C@H](CCc1ccccc1)NC(=O)[C@H](CC(C)C)NC(=O)c1cccc(OCCN2CCOCC2)c1", "236 nM"],
  ["COC(=O)C1=C(C)NC2=C(C(=O)CC(c3ccc(OC)c(OC)c3)C2)C1c1cccc(O)c1 (stereo unspecified)", "729 nM"],
  ["CNc1nc(N/N=C/c2cc([N+](=O)[O-])c(Cl)cc2Cl)nc(Nc2cccc(C(F)(F)F)c2)n1", "729 nM"],
  ["O=C(Cn1c(SCc2cccc(F)c2F)cc(=O)c2ccccc21)N(CCCn1ccnc1)Cc1ccc(-c2ccc(C(F)(F)F)cc2)cc1", "1320 nM"],
  ["CC1(C)N=C(N)N=C(N)N1c1ccc(Oc2ccccc2)cc1", "341 nM"],
  ["COC(=O)c1c(C#N)c(OC)cc(O)c1CSC[C@H](Nc1nc(-c2ccc([N+](=O)[O-])cc2)cs1)C(=O)NCCN1CCCCC1", "1060 nM"],
  ["CC(C)C1C(O)=C(c2ccc3ccccc3c2)C(=O)N1CC1CCCCC1 (stereo unspecified)", "1130 nM"],
  ["Cn1cnc(CCNC(=O)c2ccc(-c3cccc(-c4nc5cc(C(F)(F)F)ccc5[nH]4)c3)cc2)c1", "726 nM"],
  ["Cc1cc(N)c2cc(NC(=O)c3cccc(C(=O)Nc4ccc5nc(C)cc(N)c5c4)c3)ccc2n1", "256 nM"],
  ["O=C(/C=C/c1ccc(Cl)c(Cl)c1)NCCCCCN1CCCC(C(=O)Nc2ccc(Cl)cc2)C1 (stereo unspecified)", "851 nM"]
]}
